Entry source: patent US8969542B2

# reported pIC50; entries follow
- Assayed Target: DRB1*0404 (DR4w14) (Homo sapiens, UniProt P01903+P01911, A100R/A169T/F76Y/I96L/K127E/L162R/M171V/N62H/P40V/Q125Y/R42H/S133A/S149N/S66Y/V209L/W38E)
- Measurement Description: biochemical
Where no end group is shown, it is not given here.
To interpret pIC50, take it as minus log10 of a concentration measured in moles per litre.

[
  {
    "Seq String": "WKHMRLECAIYYKAR [compound 91]",
    "Numeric Value": 5.16
  }
]

Asked: Which pIC50 value belongs to DWVMAIFGVNPTVAEGF [compound 114] ?
Given back: 7.70
